Target: mouse HER2 (23-653) (Mus musculus)
Sequence (P70424 23-653): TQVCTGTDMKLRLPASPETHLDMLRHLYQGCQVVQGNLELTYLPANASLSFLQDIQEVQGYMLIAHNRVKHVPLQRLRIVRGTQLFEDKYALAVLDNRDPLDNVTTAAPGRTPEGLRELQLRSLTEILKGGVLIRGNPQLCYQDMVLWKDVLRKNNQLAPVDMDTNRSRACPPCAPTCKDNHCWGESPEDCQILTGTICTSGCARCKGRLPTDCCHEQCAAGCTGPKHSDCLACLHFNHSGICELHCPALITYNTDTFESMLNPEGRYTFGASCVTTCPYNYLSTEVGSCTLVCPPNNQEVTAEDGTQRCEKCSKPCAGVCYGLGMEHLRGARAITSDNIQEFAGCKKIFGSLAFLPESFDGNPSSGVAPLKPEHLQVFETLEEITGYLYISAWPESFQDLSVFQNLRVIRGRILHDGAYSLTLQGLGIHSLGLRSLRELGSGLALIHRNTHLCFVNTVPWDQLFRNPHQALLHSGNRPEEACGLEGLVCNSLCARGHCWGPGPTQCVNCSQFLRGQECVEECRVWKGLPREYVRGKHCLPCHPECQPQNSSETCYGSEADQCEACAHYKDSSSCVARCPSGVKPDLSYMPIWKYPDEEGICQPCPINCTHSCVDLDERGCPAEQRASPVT
Experiment: TR-FRET competition assay for peptide potency, mouse HER2
Assay type: binding
Set-up: mouse HER2 (23-653) using a Cy5 labeled peptide as a probe; made in house; host or cells: mammalian cells
Settings: TR-FRET competition with Cy5 labeled peptide probe, 0.1 nM mouse HER2, 24 h incubation; read-out: moHER2 TR-FRET IC50
PARAMETER: IC50
Show the value, then the unit it is measured in.

Ask: Tell me reported IC50 for COCCOCCOCCOCCOCCOCCOCCOCCOCCOCCOCCOCCC(=O)N[C@H]1CCCC(=O)NC[C@@H](C(=O)N(C)[C@@H](Cc2ccc(F)cc2)C(=O)N[C@@H](CCCCNC(=O)CN2CCN(CC(=O)O)CCN(CC(=O)O)CCN(CC(=O)O)CC2)C(N)=O)N(C)C(=O)[C@H](C2CC2)NC(=O)[C@H](Cc2c[nH]c3ccccc23)NC(=O)[C@H](Cc2c[nH]c3ccc(O)cc23)NC(=O)[C@H](CCCCNC(C)=O)N(C)C(=O)[C@H](CCc2ccccc2)N(C)C(=O)[C@H](CO)NC(=O)[C@H](Cc2ccc(O)cc2)NC1=O [Example C37] , tested with mouse HER2 (23-653) (Mus musculus).
Result: 400 pM
